// Tmax lookup, one value per entry
- method description: Oral administration pharmacokinetic test using mice
- measurement context: mice, oral, 10 mg/kg
Give just the numeric value; min need not be written.

The following compounds have reported results that may help.
Cl.O=S1(=O)CCN(Cc2cc(NC3CCOCC3)c3[nH]c(-c4ccccc4)cc3c2)CC1 [Hydrochloride] = 120
Cc1ccc(S(=O)(=O)O)cc1.O=S1(=O)CCN(Cc2cc(NC3CCOCC3)c3[nH]c(-c4ccccc4)cc3c2)CC1 [Tosylate] = 30
O=C(O)/C=C\C(=O)O.O=S1(=O)CCN(Cc2cc(NC3CCOCC3)c3[nH]c(-c4ccccc4)cc3c2)CC1 [Maleate] = 30

Now examine the next entry.
Input CS(=O)(=O)O.O=S1(=O)CCN(Cc2cc(NC3CCOCC3)c3[nH]c(-c4ccccc4)cc3c2)CC1 [Mesylate] . Output Tmax: 30

* * *

- method description: Solubility of compound of Chemical Formula 1 in various solvents
- Format: physicochemical
- measurement context: aqueous with cosolvent or surfactant or cyclodextrin; Acetic acid-water (1:1), 25° C.; read-out: Solubility
measure name: solubility (mg/mL)
Give just the numeric value; mg/mL need not be written.

Input "O=S1(=O)CCN(Cc2cc(NC3CCOCC3)c3[nH]c(-c4ccccc4)cc3c2)CC1" . Output solubility: 52.8

* * *

- method description: Solubility test of sulfate (Crystalline form III) in various solvents
- Assay type: physicochemical
- measurement context: organic solvent or mixture, thermodynamic from solid; IPA, 50° C.; read-out: Solubility
measure name: solubility

Input O=S1(=O)CCN(Cc2cc(NC3CCOCC3)c3[nH]c(-c4ccccc4)cc3c2)CC1 [Sulfate] . Output solubility: < 2000 µg/mL

* * *

- method description: Physicochemical stability test of free form and 5 salts (60° C., 40° C./75% humidity, light)
- measurement context: 40° C./75% RH, 1 w; HPLC
measure name: Final purity (%)
Give just the numeric value; % need not be written.

Input O=S1(=O)CCN(Cc2cc(NC3CCOCC3)c3[nH]c(-c4ccccc4)cc3c2)CC1 [Sulfate] . Output Final purity: 99.30

* * *

- method description: Solubility of compound of Chemical Formula 1 in various solvents
- Format: physicochemical
- measurement context: organic solvent or mixture; Ethyl acetate (EtOAc), 50° C.; read-out: Solubility
measure name: solubility (µg/mL)
Give just the numeric value; µg/mL need not be written.

Input "O=S1(=O)CCN(Cc2cc(NC3CCOCC3)c3[nH]c(-c4ccccc4)cc3c2)CC1" . Output solubility: 1860

* * *

- method description: Solubility test of sulfate (Crystalline form III) in various solvents
- Format: physicochemical
- measurement context: organic solvent or mixture, thermodynamic from solid; EtOH, 50° C.; read-out: Solubility
- Method: First, solvent screening was performed for a study on various crystalline forms.
measure name: solubility

Input O=S1(=O)CCN(Cc2cc(NC3CCOCC3)c3[nH]c(-c4ccccc4)cc3c2)CC1 [Sulfate] . Output solubility: < 2000 µg/mL

* * *

- method description: Solubility of compound of Chemical Formula 1 in various solvents
- Assay type: physicochemical
- measurement context: aqueous with cosolvent or surfactant or cyclodextrin; Acetone-water (1:2), 50° C.; read-out: Solubility
measure name: solubility (µg/mL)
Give just the numeric value; µg/mL need not be written.

Input "O=S1(=O)CCN(Cc2cc(NC3CCOCC3)c3[nH]c(-c4ccccc4)cc3c2)CC1" . Output solubility: 160

* * *

- method description: Solubility test of sulfate (Crystalline form III) in various solvents
- Type: physicochemical
- measurement context: organic solvent or mixture, thermodynamic from solid; EtOAc, 25° C.; read-out: Solubility
measure name: solubility

Input O=S1(=O)CCN(Cc2cc(NC3CCOCC3)c3[nH]c(-c4ccccc4)cc3c2)CC1 [Sulfate] . Output solubility: < 2000 µg/mL

* * *

- method description: Solubility of compound of Chemical Formula 1 in various solvents
- Assay type: physicochemical
- measurement context: aqueous with cosolvent or surfactant or cyclodextrin; Acetone-water (1:2), 25° C.; read-out: Solubility
measure name: solubility

Input "O=S1(=O)CCN(Cc2cc(NC3CCOCC3)c3[nH]c(-c4ccccc4)cc3c2)CC1" . Output solubility: 80 µg/mL

* * *

- method description: Physicochemical stability test of free form and 5 salts (60° C., 40° C./75% humidity, light)
- measurement context: Dark control; HPLC
// Final purity lookup, one value per entry
Note: a bare number is incomplete; add the unit.

The following compounds have reported results that may help.
Cl.O=S1(=O)CCN(Cc2cc(NC3CCOCC3)c3[nH]c(-c4ccccc4)cc3c2)CC1 [Hydrochloride] = 100.0%
O=C(O)/C=C\C(=O)O.O=S1(=O)CCN(Cc2cc(NC3CCOCC3)c3[nH]c(-c4ccccc4)cc3c2)CC1 [Maleate] = 97.04%
CS(=O)(=O)O.O=S1(=O)CCN(Cc2cc(NC3CCOCC3)c3[nH]c(-c4ccccc4)cc3c2)CC1 [Mesylate] = 100.0%
Cc1ccc(S(=O)(=O)O)cc1.O=S1(=O)CCN(Cc2cc(NC3CCOCC3)c3[nH]c(-c4ccccc4)cc3c2)CC1 [Tosylate] = 98.98%

Input O=S1(=O)CCN(Cc2cc(NC3CCOCC3)c3[nH]c(-c4ccccc4)cc3c2)CC1 [Sulfate] . Output Final purity: 99.75%

* * *

- method description: Solubility of compound of Chemical Formula 1 in various solvents
- Type: physicochemical
- measurement context: organic solvent or mixture; N-methyl pyrrolidone (NMP), 50° C.; read-out: Solubility
measure name: solubility (mg/mL)
Give just the numeric value; mg/mL need not be written.

Input "O=S1(=O)CCN(Cc2cc(NC3CCOCC3)c3[nH]c(-c4ccccc4)cc3c2)CC1" . Output solubility: 192

* * *

- method description: Solubility test of sulfate (Crystalline form III) in various solvents
- Assay type: physicochemical
- measurement context: organic solvent or mixture, thermodynamic from solid; ACN, 25° C.; read-out: Solubility
measure name: solubility

Input O=S1(=O)CCN(Cc2cc(NC3CCOCC3)c3[nH]c(-c4ccccc4)cc3c2)CC1 [Sulfate] . Output solubility: < 2000 µg/mL

* * *

- method description: Solubility test of sulfate (Crystalline form III) in various solvents
- Type: physicochemical
- measurement context: organic solvent or mixture, thermodynamic from solid; MIBK, 50° C.; read-out: Solubility
measure name: solubility

Input O=S1(=O)CCN(Cc2cc(NC3CCOCC3)c3[nH]c(-c4ccccc4)cc3c2)CC1 [Sulfate] . Output solubility: < 2000 µg/mL

* * *

- method description: Solubility test of sulfate (Crystalline form III) in various solvents
- Type: physicochemical
- measurement context: organic solvent or mixture, thermodynamic from solid; 1-Butanol, 50° C.; read-out: Solubility
- Protocol: First, solvent screening was performed for a study on various crystalline forms.
measure name: solubility

Input O=S1(=O)CCN(Cc2cc(NC3CCOCC3)c3[nH]c(-c4ccccc4)cc3c2)CC1 [Sulfate] . Output solubility: < 2000 µg/mL

* * *

// Pharmacokinetic test, t½ lookup, one value per entry
- method description: Oral administration pharmacokinetic test using mice
- measurement context: mice, oral; summary Table 9
Give just the numeric value; h need not be written.

The following compounds have reported results that may help.
O=S1(=O)CCN(Cc2cc(NC3CCOCC3)c3[nH]c(-c4ccccc4)cc3c2)CC1 [Sulfate] = 4
CS(=O)(=O)O.O=S1(=O)CCN(Cc2cc(NC3CCOCC3)c3[nH]c(-c4ccccc4)cc3c2)CC1 [Mesylate] = 2
Cc1ccc(S(=O)(=O)O)cc1.O=S1(=O)CCN(Cc2cc(NC3CCOCC3)c3[nH]c(-c4ccccc4)cc3c2)CC1 [Tosylate] = 3

Input Cl.O=S1(=O)CCN(Cc2cc(NC3CCOCC3)c3[nH]c(-c4ccccc4)cc3c2)CC1 [Hydrochloride] . Output Pharmacokinetic test, t½: 3

Input O=C(O)/C=C\C(=O)O.O=S1(=O)CCN(Cc2cc(NC3CCOCC3)c3[nH]c(-c4ccccc4)cc3c2)CC1 [Maleate] . Output Pharmacokinetic test, t½: 3

* * *

- method description: Solubility test of sulfate (Crystalline form III) in various solvents
- Assay type: physicochemical
- measurement context: organic solvent or mixture, thermodynamic from solid; MTBE, 25° C.; read-out: Solubility
measure name: solubility

Input O=S1(=O)CCN(Cc2cc(NC3CCOCC3)c3[nH]c(-c4ccccc4)cc3c2)CC1 [Sulfate] . Output solubility: < 2000 µg/mL

* * *

- method description: Solubility of compound of Chemical Formula 1 in various solvents
- Type: physicochemical
- measurement context: aqueous with cosolvent or surfactant or cyclodextrin; MeOH/water = 1:1 (v/v), 50° C.; read-out: Solubility
measure name: solubility (µg/mL)
Give just the numeric value; µg/mL need not be written.

Input "O=S1(=O)CCN(Cc2cc(NC3CCOCC3)c3[nH]c(-c4ccccc4)cc3c2)CC1" . Output solubility: 80

* * *

- method description: Physicochemical stability test of free form and 5 salts (60° C., 40° C./75% humidity, light)
- measurement context: 60° C., 1 w; HPLC
- Description: In the case of a light stability test, the vial was stored in a light stability test chamber while being not closed with a lid, and exposed to a total illuminance of 1.2 million lux-hr. A vial light-shielded with aluminum foil was used as an experimental control (Dark control). For stability assessment, state assessment by visual observation, purity assessment using HPLC, and crystalline form assessment using XRPD were conducted, and results thereof are shown in Table 7. […]
measure name: Final purity
Note: a bare number is incomplete; add the unit.

O=S1(=O)CCN(Cc2cc(NC3CCOCC3)c3[nH]c(-c4ccccc4)cc3c2)CC1 [Sulfate] = 99.83%
Cc1ccc(S(=O)(=O)O)cc1.O=S1(=O)CCN(Cc2cc(NC3CCOCC3)c3[nH]c(-c4ccccc4)cc3c2)CC1 [Tosylate] = 98.96%
CS(=O)(=O)O.O=S1(=O)CCN(Cc2cc(NC3CCOCC3)c3[nH]c(-c4ccccc4)cc3c2)CC1 [Mesylate] = 100.0%
O=C(O)/C=C\C(=O)O.O=S1(=O)CCN(Cc2cc(NC3CCOCC3)c3[nH]c(-c4ccccc4)cc3c2)CC1 [Maleate] = 96.59%

Input Cl.O=S1(=O)CCN(Cc2cc(NC3CCOCC3)c3[nH]c(-c4ccccc4)cc3c2)CC1 [Hydrochloride] . Output Final purity: 100.0%
